Origin of the recorded values: paper PMC12811658

procedure_text: Pharmacokinetics of iDeg-6
Format: in vivo, male C57Bl/6 mice
condition_set: male, C57Bl/6, mouse, plasma; 30 mg/kg IP
measurement_type: bioavailability (%)
One number for each entry, in %.

Name the reported bioavailability value associated with the molecule C#Cc1ccc(NC(=O)OC[C@]23CN(S(=O)(=O)c4ccc(C(C)(C)C)cc4C)C[C@H]2C[C@H]2C[C@@H]3C2(C)C)cc1 57

* * *

procedure_text: Pharmacokinetics of iDeg-6
Type: in vivo, male C57Bl/6 mice
condition_set: male, C57Bl/6, mouse, plasma; 1 mg/kg IV
Description: In vivo pharmacology characterization was carried out at Pharmacelsus GmbH, Saarbrücken, Germany, using male C57Bl/6 mice. Food and water was provided ad libitum before and during each study. All experimental procedures were approved by and conducted in accordance with the regulations of the local Animal Welfare Authorities. Plasma samples were analysed by liquid chromatography tandem-mass spectrometry using a generic method. Pharmacokinetic parameters were calculated by non-compartmental analysis. […]
measurement_type: clearance (mL/min/kg)
Answers are plain numbers, in mL/min/kg.

I'd like to know its clearance. The compound in question is C#Cc1ccc(NC(=O)OC[C@]23CN(S(=O)(=O)c4ccc(C(C)(C)C)cc4C)C[C@H]2C[C@H]2C[C@@H]3C2(C)C)cc1 40.3
